This listing pairs molecules with measured IC50.
target: HIF2α PAS-B domain (236-350, biotinylated on the N-terminus) (Homo sapiens (Human), UniProt Q99814)
Sequence (Q99814 236-350): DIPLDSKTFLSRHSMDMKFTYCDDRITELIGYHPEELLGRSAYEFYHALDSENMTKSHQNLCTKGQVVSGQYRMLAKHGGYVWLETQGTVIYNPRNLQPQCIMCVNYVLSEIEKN
Number in nM, nothing else.

Please supply the value of reported IC50 for the item Cc1nccc2c1C(F)(F)CC[C@@]21CN2C=C(C(F)(F)F)C=C(OC(F)F)C2=N1 [Example 32]
13

Please supply the value of reported IC50 for the item Cc1ccc2c(c1F)OCC[C@@]21CN2C=C(C(F)(F)F)C=C(OC(F)F)C2=N1 [Example 46]
13

Please supply the value of reported IC50 for the item N#CC1=CN2C[C@@]3(CCC(F)(F)c4c3ccc(Br)c4F)N=C2C(OC(F)F)=C1 [Example 92]
29

Please supply the value of reported IC50 for the item Fc1cccc2c1CCC[C@@]21CN2C=C(C(F)(F)F)C=C(OC(F)F)C2=N1 [Example 28]
5

Please supply the value of reported IC50 for the item N#CC1=CN2C[C@@]3(CCCc4c3ccc(F)c4F)N=C2C(OC(F)F)=C1 [Example 91]
5

Please supply the value of reported IC50 for the item COc1ccc2c(c1F)OCC[C@@]21CN2C=C(C(F)(F)F)C=C(OC(F)F)C2=N1 [Example 103]
42

====

tested on: HIF2α-dependent transcription in 786-O-HRE-Luc cells; assay: In vitro cellular hypoxia response element (HRE) reporter gene assay (RGA) for HIF2α; format: cell-based, human; conditions: Homo sapiens, 24 hours incubation
This listing pairs molecules with measured pIC50.
Please report pIC50 as the negative decimal logarithm of the molar concentration, giving only the number.

Please supply the value of reported pIC50 for the item FCOC1=CC(C(F)(F)F)=CN2C[C@@]3(CCc4c3ccc(Br)c4F)N=C12 [Example 5]
6.48

More entries:
Please supply the value of reported pIC50 for the item FC(F)OC1=CC(C(F)(F)F)=CN2C[C@@]3(CCC(F)(F)c4c3ccnc4C(F)F)N=C12 [Example 70]
5.78

Please supply the value of reported pIC50 for the item [2H]C([2H])([2H])c1nccc2c1C(F)(F)CC[C@@]21CN2C=C(C(F)(F)F)C=C(OC(F)F)C2=N1 [Example 33]
6.26

====

Target or system HIF2α PAS-B domain (236-350, biotinylated on the N-terminus) (Homo sapiens (Human)): recorded IC50 listed per item.
Number in nM, nothing else.

Reference set (2 entries):
Consider the molecule Fc1cccc2c1OCCC[C@@]21CN2C=C(C(F)(F)F)C=C(OC(F)F)C2=N1 [Example 69] tested on HIF2α PAS-B domain (236-350, biotinylated on the N-terminus) (Homo sapiens (Human)); state its IC50.
9

Consider the molecule N#CC1=CN2C[C@@]3(CCCc4cc(F)ccc43)N=C2C(OC(F)F)=C1 [Example 35] tested on HIF2α PAS-B domain (236-350, biotinylated on the N-terminus) (Homo sapiens (Human)); state its IC50.
9

Let's switch to this molecule now.
Consider the molecule Fc1c(Br)ccc2c1[C@@H](F)[C@H](F)C[C@@]21CN2C=C(C(F)(F)F)C=C(OC(F)F)C2=N1 [Example 83] tested on HIF2α PAS-B domain (236-350, biotinylated on the N-terminus) (Homo sapiens (Human)); state its IC50.
9

====

test system: HIF2α-dependent transcription in 786-O-HRE-Luc cells; assay: In vitro cellular hypoxia response element (HRE) reporter gene assay (RGA) for HIF2α; format: cell-based, human; conditions: Homo sapiens, 24 hours incubation
measured-metric: IC50 (nM)
Number in nM, nothing else.

Reference set (3 entries):
Please supply the value of reported IC50 for the item Fc1c(Br)ccc2c1CCC[C@@]21CN2C=C(C(F)(F)F)C=C(Cl)C2=N1
372

Please supply the value of reported IC50 for the item CSc1ccc2c(c1F)OCC[C@@]21CN2C=C(C(F)(F)F)C=C(OC(F)F)C2=N1
286

Please supply the value of reported IC50 for the item FC(F)OC1=CC(C(F)(F)F)=CN2C[C@@]3(CCOc4c3ccc(Br)c4Br)N=C12
66

More entries:
Please supply the value of reported IC50 for the item FC1=CC(C(F)(F)F)=CN2CC3(CCCc4c3ccc(F)c4F)N=C12 (racemic)
4230

Please supply the value of reported IC50 for the item N#CC1=CN2C[C@@]3(CSCc4c(F)cccc43)N=C2C(OC(F)F)=C1
670

Please supply the value of reported IC50 for the item N#CC1=CN2C[C@@]3(CCOc4c3ccc(Br)c4F)N=C2C(OC(F)F)=C1
979

Please supply the value of reported IC50 for the item FC1=CC(C(F)(F)F)=CN2C[C@@]3(CCCc4cc(C(F)(F)F)ccc43)N=C12
600

====

molecular target: HIF2α PAS-B domain (236-350, biotinylated on the N-terminus) (Homo sapiens (Human), UniProt Q99814)
This listing pairs compounds with measured pIC50.
Please report pIC50 as the negative decimal logarithm of the molar concentration, giving only the number.

Please supply the value of reported pIC50 for the item Fc1c(Br)ccc2c1OC[C@@H](F)[C@@]21CN2C=C(C(F)(F)F)C=C(OC(F)F)C2=N1 [Example 58]
8.10

Please supply the value of reported pIC50 for the item N#Cc1ccc2c(c1F)SCC[C@@]21CN2C=C(C(F)(F)F)C=C(OC(F)F)C2=N1 [Example 111]
8.05

Please supply the value of reported pIC50 for the item N#CC1=CN2C[C@@]3(CCSc4c3ccc(Cl)c4F)N=C2C(OC(F)F)=C1 [Example 64]
8.00

Please supply the value of reported pIC50 for the item FC(F)OC1=CC(C(F)(F)F)=CN2C[C@@]3(N=C12)c1ccc(C(F)(F)F)cc1OC[C@@H]3F [Example 61]
7.77

Let's switch to this compound now.
Please supply the value of reported pIC50 for the item FC(F)OC1=CC(C(F)(F)F)=CN2C[C@@]3(CCC(F)(F)c4c3ccnc4C(F)F)N=C12 [Example 70]
7.70

====

target: HIF2α PAS-B domain (236-350, biotinylated on the N-terminus) (Homo sapiens (Human), UniProt Q99814)
Note to self: use class 1 only for IC50 readings below 10 nM; a reading exactly at 10 nM still gets class 0.

Consider the following illustrative entries.
is_below(IC50, 10 nM) for Fc1cccc2c1SCC[C@@]21CN2C=C(C(F)(F)F)C=C(OC(F)F)C2=N1 [Example 65] ?
class 1

is_below(IC50, 10 nM) for Fc1c(Br)ccc2c1CCC[C@@]21CN2C=C(C(F)(F)F)C=C(OC(F)F)C2=N1 [Example 7] ?
class 1

is_below(IC50, 10 nM) for Fc1ccc2c(c1Cl)CCC[C@@]21CN2C=C(C(F)(F)F)C=C(OC(F)F)C2=N1 [Example 82] ?
class 1

More entries:
is_below(IC50, 10 nM) for O=C1c2c(ccc(Br)c2F)[C@@]2(C[C@H]1F)CN1C=C(C(F)(F)F)C=C(OC(F)F)C1=N2 [Example 9] ?
class 0

is_below(IC50, 10 nM) for COc1nccc2c1C(F)(F)CC[C@@]21CN2C=C(C(F)(F)F)C=C(OC(F)F)C2=N1 [Example 34] ?
class 0

is_below(IC50, 10 nM) for FC(F)OC1=CC(C(F)(F)F)=CN2C[C@@]3(CCOc4c(Br)cccc43)N=C12 [Example 107] ?
class 1

is_below(IC50, 10 nM) for FC(F)OC1=CC(C(F)(F)F)=CN2C[C@@]3(CCOc4cc(Cl)ccc43)N=C12 [Example 41] ?
class 0

is_below(IC50, 10 nM) for Fc1cccc2c1OCC[C@@]21CN2C=C(C(F)(F)F)C=C(OC(F)F)C2=N1 [Example 47] ?
class 0

is_below(IC50, 10 nM) for FCOC1=CC(C(F)(F)F)=CN2C[C@@]3(CCc4c3ccc(Br)c4F)N=C12 [Example 5] ?
class 1

is_below(IC50, 10 nM) for COC1=CC(C(F)(F)F)=CN2C[C@@]3(CCC(F)(F)c4c3ccnc4Cl)N=C12 [Example 30] ?
class 0

is_below(IC50, 10 nM) for Fc1cccc2c1C(F)(F)CC[C@@]21CN2C=C(C(F)(F)F)C=C(OC(F)F)C2=N1 [Example 23] ?
class 1

is_below(IC50, 10 nM) for Fc1c(Cl)ccc2c1OC[C@H](F)[C@@]21CN2C=C(C(F)(F)F)C=C(OC(F)F)C2=N1 [Example 97] ?
class 0

is_below(IC50, 10 nM) for N#Cc1ccc2c(c1)CCC[C@@]21CN2C=C(C(F)(F)F)C=C(OC(F)F)C2=N1 [Example 38] ?
class 0

is_below(IC50, 10 nM) for Fc1c(Br)ccc2c1OCC[C@@]21CN2C=C(Cl)C=C(OC(F)F)C2=N1 [Example 52] ?
class 0

is_below(IC50, 10 nM) for FC(F)OC1=CC(C(F)(F)F)=CN2C[C@@]3(CCOc4c(C(F)(F)F)cccc43)N=C12 [Example 104] ?
class 1

is_below(IC50, 10 nM) for N#CC1=CN2C[C@@]3(CCCc4c(F)cccc43)N=C2C(OC(F)F)=C1 [Example 26] ?
class 1

Values compiled from patent US12226405B2.
